- System: Trypanosoma cruzi
- experiment_summary: Trypanocidal activity against bloodstream trypomastigote stage of Trypanosoma cruzi Y after 24 hrs by Neubauer chamber method
- Type: functional
property: IC50

Example entries begin here.
{"compound": "O=C1C(=O)c2ccccc2C2=C1CC(Cn1nnc(-c3ccccc3)c1I)O2 (centres undefined)", "IC50": "> 1000 µM"}
{"compound": "O=C1C2=C(OC(Cn3nnc(-c4ccccc4)c3I)C2)C(=O)c2ccccc21 (centres undefined)", "IC50": "> 1000 µM"}
{"compound": "CC1(C)OC2=C(C(=O)C(=O)c3ccccc32)C1n1nnc(-c2ccccc2)c1I (centres undefined)", "IC50": "> 1000 µM"}
{"compound": "CC1(C)CC(n2nncc2-c2ccccc2)C2=C(O1)C(=O)c1ccccc1C2=O (centres undefined)", "IC50": "> 1000 µM"}

Reported IC50 for O=C1C(=O)c2ccccc2C2=C1CC(Cn1nnc(-c3ccccc3)c1-c1ccccc1)O2 (centres undefined) was > 1000 µM

IC50 recorded for this compound, CC1(C)OC2=C(C(=O)C(=O)c3ccccc32)[C@H](n2nncc2-c2ccccc2)[C@H]1Br , is 125 µM

---

Listing of entries alongside the reported IC50.
- experiment_summary: Cytotoxicity against human HL60 cells assessed as decrease in cell viability after 72 hrs by MTT assay
- Assay type: functional, cell-based
- run_parameters: HL-60, 72 h
Your answer is read as µM, so omit the unit and give the number.

{"molecule": "O=C1C(=O)c2ccccc2C2=C1CC(Cn1cc(C3CCCCC3)nn1)O2 (stereo not given)", "units_label": "µM", "IC50": 2.25}
{"molecule": "O=C1C(=O)c2ccccc2C2=C1CC(Cn1cc(C3=CCCCC3)nn1)O2 (stereo not given)", "units_label": "µM", "IC50": 3.29}
{"molecule": "O=C1C(=O)c2ccccc2C2=C1CC(Cn1nnc(-c3ccccc3)c1-c1ccccc1)O2 (stereo not given)", "units_label": "µM", "IC50": 1.15}
{"molecule": "CC1(C)OC2=C(C(=O)C(=O)c3ccccc32)C1n1nnc(-c2ccccc2)c1I (stereo not given)", "units_label": "µM", "IC50": 2.59}

Please examine the following record next.
Measured IC50 of CC1(C)CC(n2cc(-c3ccccc3)nn2)C2=C(O1)C(=O)c1ccccc1C2=O (stereo not given) : 7.94

---

- experiment_summary: Cytotoxicity against human PC3 cells assessed as decrease in cell viability after 72 hrs by MTT assay
- Type: functional, cell-based
- run_parameters: PC-3, 72 h
Catalogue of pIC50 readings, one per entry.
// pIC50 here means minus log10 of the molar concentration (mol/L)

Past entries and their recorded results:
{"molecule": "O=C1C(=O)c2ccccc2C2=C1CC(Cn1cc(-c3ccccc3)nn1)O2 (stereo not given)", "pIC50": 5.68}
{"molecule": "CCCCCCc1cn(CC2CC3=C(O2)c2ccccc2C(=O)C3=O)nn1 (stereo not given)", "pIC50": 5.47}
{"molecule": "CC1(C)OC2=C(C(=O)c3ccccc3C2=O)C1n1nncc1-c1ccccc1 (stereo not given)", "pIC50": 5.51}
{"molecule": "O=C1C(=O)c2ccccc2C2=C1CC(Cn1cc(C3=CCCCC3)nn1)O2 (stereo not given)", "pIC50": 5.36}
{"molecule": "O=C1C(=O)c2ccccc2C2=C1CC(Cn1nnc(-c3ccccc3)c1-c1ccccc1)O2 (stereo not given)", "pIC50": 5.89}

Lab note: measured pIC50 of O=C1C(=O)c2ccccc2C2=C1CC(Cn1nnc(-c3ccccc3)c1I)O2 (stereo not given) was 5.66

The reported value for O=C1C(=O)c2ccccc2C2=C1CC(Cn1cc(C3CCCCC3)nn1)O2 (stereo not given) in terms of pIC50 is 5.59

Entry under test: CC1(C)OC2=C(C(=O)C(=O)c3ccccc32)[C@H](n2nncc2-c2ccccc2)[C@H]1Br . Its pIC50 was 6.39

The recorded pIC50 for O=C1C(=O)c2ccccc2C2=C1CC(Cn1nncc1-c1ccccc1)O2 (stereo not given) is 5.16

Entry O=C1C(=O)c2ccccc2C2=C1CC(Cn1cc(C3(O)CCCCC3)nn1)O2 (stereo not given) , pIC50 reported as 4.91

Form: molecule = CC1(C)OC2=C(C(=O)C(=O)c3ccccc32)C1n1nnc(-c2ccccc2)c1I (stereo not given) ; pIC50 = 5.56
